Attribution: PubChem BioAssay (NCI)

Test system: A498 renal
Experiment: NCI tumour cell line growth inhibition, 48 h
assay_readout: TGI (µM)
Lab book: enter the figure in µM, no units written.

Give the reported TGI for COC(=O)C1Cc2c([nH]c3ccccc23)C(c2ccccc2O)N1Cc1ccccc1 (centres undefined) (system: A498 renal).
37.8

Tell me reported TGI for CSc1nsc(S/C=C\C(=O)c2ccc(C)cc2)n1 , tested with A498 renal.
0.169

Item: COc1ccc(N2C(=O)C3c4[nH]c5ccccc5c4C4CCCCCCC4C3C2=O)cc1 (centres undefined) Test system: A498 renal Read-out: TGI Value: ?
52.3

Provide the documented TGI with A498 renal as the system for COC(=O)/C=c1/c2ccccc2n2c1c1ccccc1[n+]2C
14.6

Entry CCN(CC)CCOc1c(OC)c(Br)cc2c(C)c(C(=O)OC)oc12 , system A498 renal: what TGI was measured?
14.6

Request body: readout TGI, system A498 renal, query COc1cc(/C=C2\CC3C4CC=C5C[C@@H](O)CC[C@]5(C)C4CC[C@]3(C)C2=O)ccc1OCCCn1ccnc1 (some centres undefined) . Return the value.
44.2

A498 renal / TGI / CC(C)(C)C(=O)N1CCN(C=O)C1=S : value?
80.8

Look up TGI with A498 renal for this compound: CCN(CC)CCCC(C)Nc1cc(-c2ccccc2)nc2cc(OC)ccc12 (centres undefined)
14

A498 renal / TGI / COC(=O)[C@H]1[C@H]2C[C@@H]3c4[nH]c5cc(OC)ccc5c4CCN3C[C@H]2C[C@@H](OC(=O)/C=C/c2cc(OC)c(OC)c(OC)c2)[C@@H]1OC : value?
18.6

Look up TGI with A498 renal for this compound: COc1ccc(C2SCC(=O)N2NC(=O)C(C)Oc2ccc(Cl)cc2Cl)cc1 (centres undefined)
76.4

Lab note: need TGI with A498 renal for entry CNCCNc1nc2ccccc2c2c(=O)c3cc(OC)ccc3sc12 , please look it up.
6.8

* * *

Test system: HT29 colon
Assay: NCI tumour cell line growth inhibition, 48 h
assay_readout: TGI

What value of TGI has been recorded for this entry: C/C(=N/NC(=S)N1CCN(C(=S)N/N=C(/C)c2ccccn2)CC1)c1ccccn1
> 100 µM

Look up TGI: CC(=O)c1cccc(-c2cccc(-c3ccn(CCN4CCOCC4)n3)c2)c1
> 20 µM

So what's the measured TGI for this one? Cc1ccc(/C=C2/NC(=S)SC2=O)cc1
> 100 µM

TGI lookup needed for O=C(CSc1nc(-c2ccccc2)c(-c2ccccc2)[nH]1)NNC(=S)Nc1ccccc1 , thanks.
> 100 µM

Look up TGI for this molecule: Cc1nc2c(n1-c1ccccc1)C(=O)c1ccccc1C2=O
> 100 µM

Report TGI for COC(=O)[C@H]1N[C@@H](C(=O)OC)C23CCC[C@H]2CC[C@]1(C(OC)OC)C3 please.
> 100 µM

* * *

System: NCI-H226 lung
Assay: NCI tumour cell line growth inhibition, 48 h
assay_readout: TGI

Please give the measured TGI for this compound: C/C(=N/NC(=S)N1CCN(C(=S)N/N=C(/C)c2ccccn2)CC1)c1ccccn1
> 74.5 µM

Recorded TGI for Clc1nc2c(C#Cc3ccccc3)ncnc2n1C1CCCCO1 (stereo not drawn) , please?
> 100 µM

# input compound: O=C1CCN2CCC(=O)c3c2c(cc2ccccc32)N1 ; wanted: its TGI
> 100 µM

Param item = COc1ccc(NC(=O)CC(=O)N2N=C(N(c3ccccc3)c3ccccc3)CC2c2ccccc2)cc1 (stereo not drawn) ; retrieve measured TGI.
> 100 µM

Data request, read-out TGI, for COc1cc2ncnc3c2cc1OCCCCCN(C)Cc1ccc(Br)cc1N3
> 100 µM

Consider the compound shown here: CC(=O)O[C@H]1CCC2[C@@H]3CCC4NC(=O)C(C#N)C[C@]4(C)C3CC[C@@]21C (stereo partly drawn) What is its recorded TGI?
> 10 µM

Using the record for COc1cc2c3c(c1OC)C1(C=CC(=O)C=C1)CC3NCC2 (stereo not drawn) , report its TGI.
> 100 µM

Given O=c1c(O)cccn1C1OC(CO)C(O)C1O (stereo not drawn) , state its recorded TGI.
> 100 µM

Fill blank: measured TGI of the compound Clc1ccc(-c2c(C3=NCCN3)nnn2-c2ccccc2)cc1 is ____.
> 100 µM

For the compound shown here, CCCCCCCCCCCCCC(=O)NCC(OCC)OCC , give the reported TGI.
> 100 µM

Given the compound CCOC(=O)c1c(-c2ccccc2)c(C(OC(c2ccccc2)c2c(-c3ccccc3)c(C(=O)OCC)n3ccccc23)c2ccccc2)c2ccccn12 (stereo not drawn) , what is its reported TGI?
> 100 µM

// lookup TGI for Cc1cccc(N=C2NC(=O)C(CC(=O)Nc3ccc(C)cc3C)S2)c1 (stereo not drawn)
> 100 µM

Recorded TGI of Clc1ccc2ns[s+]c2c1 , please.
> 100 µM
